- ASSAY_SYSTEM: UniProt P14842
- ASSAY_PROTOCOL: Binding test on [3H] ketanserin (serotonin 2 receptor)
- CONDITION: [3H] ketanserin 0.3 nM, receptor fraction of rat cerebral cortex; read-out: 5HT2
Each record is given criterion met if its reported Ki is strictly below 6 nM. Records at or above 6 nM are given criterion not met.

> print(dat)
                                   compound       answer.label
1  OCc1ccc2c(c1)N(C1CCN(CCc3ccc(F)cc3)CC1)CC2  criterion not met
2  c1ccc2c(c1)CCN2C1CCN(CCc2ccc3c(c2)OCO3)CC1      criterion met
3  CC1CC(=C2CCN(CCc3ccc(F)cc3)CC2)c2nccnc21 (stereo not drawn)  criterion not met
4  CC(=O)NCc1ccc2c(Cl)cn(C3CCN(CCc4ccc(F)cc4)CC3)c2c1  criterion not met
5  CN(C)C(=O)NCc1ccc2ccn(C3CCN(CCc4ccc(F)cc4)CC3)c2c1      criterion met
6  COc1ccc(CCN2CCC(N3CCc4ccc(OC)cc43)CC2)cc1  criterion not met

Bench note: check whether COc1ccc2c(c1)N(C1CCN(CCc3ccc4ncsc4c3)CC1)CC2 shows Ki below 6 nM
criterion not met

// query: Fc1ccc(CCN2CCC(N3CCc4cc5c(cc43)OCO5)CC2)cc1
criterion met

// query: Fc1ccc(CCN2CCC(N3CCc4cccnc43)CC2)cc1
criterion not met

* * *

Readings of pKi for the listed compounds
- ASSAY_SYSTEM: serotonin 2 receptor (Rattus norvegicus, UniProt P14842)
- Sequence (P14842 whole entry): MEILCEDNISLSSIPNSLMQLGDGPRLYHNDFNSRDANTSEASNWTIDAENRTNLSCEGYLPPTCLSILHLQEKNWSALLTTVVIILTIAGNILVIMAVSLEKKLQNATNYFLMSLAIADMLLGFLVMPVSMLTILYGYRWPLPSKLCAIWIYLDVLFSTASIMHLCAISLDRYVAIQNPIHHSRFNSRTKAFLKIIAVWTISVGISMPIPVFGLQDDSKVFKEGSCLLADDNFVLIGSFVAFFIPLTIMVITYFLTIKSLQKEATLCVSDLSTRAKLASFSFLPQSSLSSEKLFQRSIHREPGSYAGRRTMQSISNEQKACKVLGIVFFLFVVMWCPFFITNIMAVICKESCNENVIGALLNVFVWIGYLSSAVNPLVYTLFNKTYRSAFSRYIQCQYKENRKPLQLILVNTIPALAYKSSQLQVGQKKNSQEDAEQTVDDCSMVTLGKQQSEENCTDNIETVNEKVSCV
- ASSAY_PROTOCOL: Binding test on [3H] ketanserin (serotonin 2 receptor)
- CONDITION: [3H] ketanserin 0.3 nM, receptor fraction of rat cerebral cortex; read-out: 5HT2
Value format note: pKi is -log10 of concentration (mol/L); just state the number.

A selection of reference data follows.
> print(dat)
                                   compound                              assay.system  measured.attribute  experimental.result
1     COc1ccc(CCN2CCC(N3CCc4ccccc43)CC2)cc1  serotonin 2 receptor (Rattus norvegicus, UniProt P14842)                 pKi                 9.92
2  CC(=O)NCc1ccc2ccn(C3CCN(CCc4cccc(F)c4)CC3)c2c1  serotonin 2 receptor (Rattus norvegicus, UniProt P14842)                 pKi                 7.94
3  N#Cc1ccc2c(c1)N(C1CCN(CCc3ccc(F)cc3)CC1)CC2  serotonin 2 receptor (Rattus norvegicus, UniProt P14842)                 pKi                 7.34
4  COC(=O)NCc1ccc2ccn(C3CCN(CCc4ccc(F)cc4)CC3)c2c1  serotonin 2 receptor (Rattus norvegicus, UniProt P14842)                 pKi                 9.60
5  CCCC(=O)NCc1ccc2c(c1)N(C1CCN(CCc3ccc(F)cc3)CC1)CC2  serotonin 2 receptor (Rattus norvegicus, UniProt P14842)                 pKi                 9.74

Which value of pKi has been reported for c1ccc2c(c1)CCN2C1CCN(CCCOc2ccc3c(c2)OCO3)CC1 in the records?
7.53

// query: c1ccc(CCN2CCC(N3CCc4ccccc43)CC2)cc1
7.76

// query: O=C(CCN1CCCCC1)NCc1ccc2ccn(C3CCN(CCc4ccc(F)cc4)CC3)c2c1
8.90

// query: CN(C)CCOc1ccc(CCN2CCC(N3CCc4ccccc43)CC2)cc1
7.36

// query: CCN1CCC(CN2CC(Cc3ccc(OC)cc3)c3ccccc32)CC1 (stereo not drawn)
7.28

// query: OCc1cccc(CCN2CCC(N3CCc4ccccc43)CC2)c1
7.91

// query: CN(C)CCNC(=O)Cc1ccc2ccn(C3CCN(CCc4ccc(F)cc4)CC3)c2c1
9.08

// query: CNOOSCc1ccc2c(c1)N(C1CCN(CCc3ccc(F)cc3)CC1)CC2
7.47

// query: CCNC(=O)Cc1ccc2ccn(C3CCN(CCc4ccc(F)cc4)CC3)c2c1
8.54

// query: OCc1ccc(OCCCN2CCC(N3CCc4ccccc43)CC2)cc1
7.56

// query: c1ccc2c(c1)CCN2C1CCN(CCc2c[nH]c3ccccc23)CC1
8.13
